Biological target: T1, rat NPR1 (rNPR1) (rat, UniProt P18910 29-469, limits assumed)
T1 construct: Soluble antigen
T1 sequence: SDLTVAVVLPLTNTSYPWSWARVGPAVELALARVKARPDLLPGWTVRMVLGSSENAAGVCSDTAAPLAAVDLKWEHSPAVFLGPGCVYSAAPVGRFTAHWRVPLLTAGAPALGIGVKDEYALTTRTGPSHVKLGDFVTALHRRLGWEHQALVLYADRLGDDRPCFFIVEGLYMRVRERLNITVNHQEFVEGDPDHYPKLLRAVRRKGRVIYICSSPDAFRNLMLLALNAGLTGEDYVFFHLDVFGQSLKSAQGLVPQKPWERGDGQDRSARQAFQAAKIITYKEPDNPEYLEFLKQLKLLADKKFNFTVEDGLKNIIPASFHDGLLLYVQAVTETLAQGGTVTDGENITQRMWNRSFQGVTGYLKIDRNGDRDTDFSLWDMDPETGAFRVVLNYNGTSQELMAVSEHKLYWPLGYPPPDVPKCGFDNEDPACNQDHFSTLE
Test: SET, FabCys
Below, each of the binders is paired with its reported Kd value.

>  <Binder>
XX07 (FabCys format) (Fab, V domains shown, Monovalent FabCys) VH: QVQLLESGGGLVQPGGSLRLSCAASGFTFSSYWMNWVRQAPGKGLEWVSAISSDGSYTYYADSVKGRFTISRDNSKNTLYLQMNSLRAEDTAVYYCARDRYSMIYSYGAGAFDYWGQGTLVTVSS VL: DIQMTQSPSSLSASVGDRVTITCRASQGISSYLAWYQQKPGKAPKLLIYTASTLQSGVPSRFSGSGSGTDFTLTISSLQPEDFATYYCQQIWTVPRTFGQGTKVEIK

>  <Readout units>
nM

>  <Kd>
2.9

$$$$
>  <Binder>
XX01 (FabCys format) (Fab, V domains shown, Monovalent FabCys) VH: EVQLLESGGGLVQPGGSLRLSCAASGFTFNTHYIHWVRQAPGKGLEWVSSISSSGQSTYYADSVKGRFTISRDNSKNTLYLQMNSLRAEDTAVYYCARERGYVYYHMFDPWGQGTLVTVSS VL: DIVLTQSPATLSLSPGERATLSCRASQSITRNYLAWYQQKPGQAPRLLIYGASSRATGIPARFSGSGSGTDFTLTISSLEPEDFAVYYCQQHSMYPRTFGQGTKVEIK

>  <Readout units>
nM

>  <Kd>
1.4

$$$$
>  <Binder>
XX08 (FabCys format) (Fab, V domains shown, Monovalent FabCys) VH: EVQLLESGGGLVQPGGSLRLSCAASGFTFNTHYIHWVRQAPGKGLEWVSSIGGQGGMTLYADSVKGRFTISRDNSKNTLYLQMNSLRAEDTAVYYCARERGYVYYHMFDPWGQGTLVTVSS VL: DIVLTQSPATLSLSPGERATLSCRASQSITRNYLAWYQQKPGQAPRLLIYGASSRATGIPARFSGSGSGTDFTLTISSLEPEDFAVYYCQQHSMYPRTFGQGTKVEIK

>  <Readout units>
nM

>  <Kd>
1.8

$$$$
